assay: Cytotoxicity against human A549 cells assessed as cell viability recovery up to 225 uM after 48 hrs by MTT assay; assay type: cell-based; conditions: read-out: Activity

{"columns": ["Smiles Entry", "viability at 48 h"],
 "data": [
  ["CCCCCCCN1C(=N)N(CCCC[C@H]2CNC(=N)N2CCc2cccc(C(F)(F)F)c2)C[C@@H]1CC1CCCCC1", "≥ 33%"]
]}

---

tested on: Enterobacter cloacae; test: Bactericidal activity against Enterobacter cloacae after 24 hrs; type: functional
Outcome Measure: MBC90 (µM)

{"columns": ["Smiles Entry", "Tested Target", "Value Observed"],
 "data": [
  ["CCCC[C@H]1CN(CCCC[C@H]2CNC(=N)N2CCc2cccc(C(F)(F)F)c2)C(=N)N1CCCCC1CCCCC1", "Enterobacter cloacae", 4.1],
  ["CCCCCCCN1C(=N)N(CCCC[C@H]2CNC(=N)N2CCC23C[C@H]4C[C@@H](C2)C[C@@H](C3)C4)C[C@@H]1CCCC", "Enterobacter cloacae", 2.7],
  ["CCCCCCCN1C(=N)N(CCCC[C@H]2CNC(=N)N2CCCCC2CCCCC2)C[C@@H]1CC1CCCCC1", "Enterobacter cloacae", 9.6],
  ["CCCCCCCN1C(=N)N(CCCC[C@H]2CNC(=N)N2CCc2cccc(C(F)(F)F)c2)C[C@@H]1CC1CCCCC1", "Enterobacter cloacae", 6.4],
  ["CCCCCCCN1C(=N)N(CCCC[C@H]2CNC(=N)N2CCc2cccc(C(F)(F)F)c2)C[C@@H]1CCCC", "Enterobacter cloacae", 3.1]
]}

---

test system: Enterobacter cloacae; assay: Antimicrobial activity against Enterobacter cloacae assessed as inhibition of microbial growth at 45 uM after 24 hrs; type: functional, organism-based
Calls of active or inactive are those of the source. The calls are words filed in the database; no cut-off is given here.
Labels: active, inactive

{"columns": ["Smiles Entry", "Discrete Label"],
 "data": [
  ["N=C1NC[C@H](CCCCN2C[C@@H](Cc3cccc4ccccc34)N(CCc3ccc(-c4ccccc4)cc3)C2=N)N1CCc1cccc(C(F)(F)F)c1", "active"],
  ["N=C1NC[C@H](CCCCN2C[C@H](CC3CCCCC3)N(CCCCC3CCCCC3)C2=N)N1CCc1cccc(C(F)(F)F)c1", "active"],
  ["CCCCCCCN1C(=N)N(CCCC[C@H]2CNC(=N)N2CCCCC2CCCCC2)C[C@H]1Cc1cccc2ccccc12", "active"],
  ["CCCCCCCN1C(=N)N(CCCC[C@H]2CNC(=N)N2CCC23C[C@H]4C[C@@H](C2)C[C@@H](C3)C4)C[C@@H]1CCCC", "active"],
  ["CCCCCCCN1C(=N)N(CCCC[C@H]2CNC(=N)N2CCc2cccc(C(F)(F)F)c2)C[C@@H]1CCCC", "active"],
  ["CCCC[C@H]1CN(CCCC[C@H]2CNC(=N)N2CCCCC2CCCCC2)C(=N)N1CCc1ccc(-c2ccccc2)cc1", "active"],
  ["CCCC[C@H]1CN(CCCC[C@H]2CNC(=N)N2CCc2cccc(C(F)(F)F)c2)C(=N)N1CCc1ccc(-c2ccccc2)cc1", "active"],
  ["CCCCCCCN1C(=N)N(CCCC[C@H]2CNC(=N)N2CCc2cccc(C(F)(F)F)c2)C[C@H]1Cc1cccc2ccccc12", "active"],
  ["N=C1NC[C@H](CCCCN2C[C@@H](Cc3cccc4ccccc34)N(CCc3ccc(-c4ccccc4)cc3)C2=N)N1CCC12CC3CC(CC(C3)C1)C2", "inactive"],
  ["N=C1NC[C@H](CCCCN2C[C@@H](Cc3cccc4ccccc34)N(CCCCC3CCCCC3)C2=N)N1CCCCC1CCCCC1", "active"],
  ["N=C1NC[C@H](CCCCN2C[C@H](CC3CCCCC3)N(CCc3ccc(-c4ccccc4)cc3)C2=N)N1CCC12CC3CC(CC(C3)C1)C2", "active"],
  ["N=C1NC[C@H](CCCCN2C[C@H](CC3CCCCC3)N(CCc3ccc(-c4ccccc4)cc3)C2=N)N1CCCCC1CCCCC1", "active"]
]}
